Assay: Distribution of C1 in tissues
Assay type: in vivo, Wistar rats
Settings: male, Wistar, rat, brain, po, 75 mg/kg, Brain, p.o. 75 mg/kg, individual rats; read-out: Concentration (µg/mL) at 10 minutes, Rat 1-3
Protocol: Fifteen male Wistar rats were distributed in five groups (n = 3) and rats were orally administered C1 at a single dose of 75 mg/kg. Subsequently, a group of animals was sacrificed (n = 3) at 10, 30, 90, 180, and 360 min. […] All tissues and organs were weighed on an analytical balance and immediately processed. Each tissue sample was homogenized with saline solution in a 1:3 (wt/v) ratio. The preparation process for analysis was the same as described above for plasma samples [57] (File S8).
measured.quantity: concentration at 10 min (µg/mL)
Give the value in µg/mL but do not write µg/mL after it.

query: # get_value(readout='concentration at 10 min', item= `O=C(/C=C(/Br)C(=O)O)Nc1ccc(O)c(C(=O)O)c1` )
result: 4.1

---

experiment: Pharmacokinetic profiles after p.o., i.p. and i.v. administration; type: in vivo, Wistar rats; conditions: Wistar, rat, plasma, po, 50 mg/kg, p.o. 50 mg/kg, rats; read-out: t1/2e, elimination half-life (converted)
measured.quantity: half-life

query: # get_value(readout='half-life', item= `O=C(/C=C(/Br)C(=O)O)Nc1ccc(O)c(C(=O)O)c1` )
result: > 2.5 h

---

assay: Pharmacokinetic profiles after p.o., i.p. and i.v. administration; assay type: in vivo, Wistar rats; details: Wistar, rat, plasma, ip, 75 mg/kg, plasma, i.p. 75 mg/kg, 20 min, n = 6; read-out: Average Concentration
measured.quantity: concentration at 20 min
The reply should consist of the numeric value with the unit placed after it.

query: # get_value(readout='concentration at 20 min', item= O=C(/C=C(/Br)C(=O)O)Nc1ccc(O)c(C(=O)O)c1 [Compound C1] )
result: 19.8 µg/mL

---

experiment: Distribution of C1 in tissues; type: in vivo, Wistar rats; details: male, Wistar, rat, brain, po, 75 mg/kg, Brain, p.o. 75 mg/kg, individual rats; read-out: Concentration (µg/mL) at 3 h, Rat 1-3
measured.quantity: concentration at 3 h (µg/mL)
Give the value in µg/mL but do not write µg/mL after it.

query: # get_value(readout='concentration at 3 h', item= O=C(/C=C(/Br)C(=O)O)Nc1ccc(O)c(C(=O)O)c1 [Compound C1] )
result: 3.2

---

test: Pharmacokinetic profiles after p.o., i.p. and i.v. administration; format: in vivo, Wistar rats; conditions: Wistar, rat, plasma, po, 50 mg/kg, i.g. (p.o.) 50 mg/kg, 10 min, n = 6
measured.quantity: concentration at 10 min (ng/mL)
Give the value in ng/mL but do not write ng/mL after it.

query: # get_value(readout='concentration at 10 min', item= O=C(/C=C(/Br)C(=O)O)Nc1ccc(O)c(C(=O)O)c1 [Compound C1] )
result: 2200

---

experiment: Distribution of C1 in tissues; format: in vivo, Wistar rats; conditions: male, Wistar, rat, liver, po, 75 mg/kg, Liver, p.o. 75 mg/kg, individual rats; read-out: Concentration (µg/mL) at 30 minutes, Rat 1-3
measured.quantity: concentration at 30 min
The reply should consist of the numeric value with the unit placed after it.

query: # get_value(readout='concentration at 30 min', item= `O=C(/C=C(/Br)C(=O)O)Nc1ccc(O)c(C(=O)O)c1` )
result: 5.8 µg/mL

---

assay: Pharmacokinetic profiles after p.o., i.p. and i.v. administration; type: in vivo, Wistar rats; settings: Wistar, rat, plasma, po, 50 mg/kg, i.g. (p.o.) 50 mg/kg, 90 min, n = 6
measured.quantity: concentration at 90 min (µg/mL)
Give the value in µg/mL but do not write µg/mL after it.

query: # get_value(readout='concentration at 90 min', item= `O=C(/C=C(/Br)C(=O)O)Nc1ccc(O)c(C(=O)O)c1` )
result: 1.8

---

assay: Pharmacokinetic profiles after p.o., i.p. and i.v. administration; type: in vivo, Wistar rats; conditions: Wistar, rat, plasma, iv, 50 mg/kg, i.v. 50 mg/kg, 30 min, n = 6
measured.quantity: concentration at 30 min (ng/mL)
Give the value in ng/mL but do not write ng/mL after it.

query: # get_value(readout='concentration at 30 min', item= O=C(/C=C(/Br)C(=O)O)Nc1ccc(O)c(C(=O)O)c1 [Compound C1] )
result: 5300

---

assay: Distribution of C1 in tissues; assay type: in vivo, Wistar rats; conditions: male, Wistar, rat, brain, po, 75 mg/kg, Brain, 90 min, p.o. 75 mg/kg, n = 3; read-out: Average Concentration
measured.quantity: concentration at 90 min

query: # get_value(readout='concentration at 90 min', item= `O=C(/C=C(/Br)C(=O)O)Nc1ccc(O)c(C(=O)O)c1` )
result: 3400 ng/mL

---

assay: Pharmacokinetic profiles after p.o., i.p. and i.v. administration; assay type: in vivo, Wistar rats; settings: Wistar, rat, plasma, po, 50 mg/kg, i.g. (p.o.) 50 mg/kg, 5 min, n = 6
measured.quantity: concentration at 5 min (ng/mL)
Give the value in ng/mL but do not write ng/mL after it.

query: # get_value(readout='concentration at 5 min', item= O=C(/C=C(/Br)C(=O)O)Nc1ccc(O)c(C(=O)O)c1 [Compound C1] )
result: 2200

---

assay: Distribution of C1 in tissues; format: in vivo, Wistar rats; conditions: male, Wistar, rat, muscle, po, 75 mg/kg, Muscle, p.o. 75 mg/kg, individual rats; read-out: Concentration (µg/mL) at 10 minutes, Rat 1-3
measured.quantity: concentration at 10 min
The reply should consist of the numeric value with the unit placed after it.

query: # get_value(readout='concentration at 10 min', item= `O=C(/C=C(/Br)C(=O)O)Nc1ccc(O)c(C(=O)O)c1` )
result: 4.8 µg/mL

---

assay: Distribution of C1 in tissues; type: in vivo, Wistar rats; conditions: male, Wistar, rat, kidney, po, 75 mg/kg, Kidney, 3 h, p.o. 75 mg/kg, n = 3; read-out: Average Concentration
measured.quantity: concentration at 3 h (ng/mL)
Give the value in ng/mL but do not write ng/mL after it.

query: # get_value(readout='concentration at 3 h', item= O=C(/C=C(/Br)C(=O)O)Nc1ccc(O)c(C(=O)O)c1 [Compound C1] )
result: 4700

---

Assay: Pharmacokinetic profiles after p.o., i.p. and i.v. administration
Format: in vivo, Wistar rats
Conditions: Wistar, rat, plasma, iv, 50 mg/kg, i.v. 50 mg/kg, 60 min, n = 6
Experimental: On the same day as C1 administration, the rats (three groups, n = 6) were previously cannulated for compound administration by the p.o., i.p., and i.v. routes. A 24 G catheter was placed in the right lateral tail vein for blood collection. A first group of rats received a single dose of 50 mg/kg applied p.o. with a 20 G gavage needle. A dose of 75 mg/kg of C1 was injected i.p. into the rats in the second group. […]
measured.quantity: concentration at 60 min (ng/mL)
Give the value in ng/mL but do not write ng/mL after it.

query: # get_value(readout='concentration at 60 min', item= `O=C(/C=C(/Br)C(=O)O)Nc1ccc(O)c(C(=O)O)c1` )
result: 4000

---

assay: Distribution of C1 in tissues; format: in vivo, Wistar rats; settings: male, Wistar, rat, small intestine, po, 75 mg/kg, Small intestine, 3 h, p.o. 75 mg/kg, n = 3; read-out: Average Concentration
measured.quantity: concentration at 3 h (ng/mL)
Give the value in ng/mL but do not write ng/mL after it.

query: # get_value(readout='concentration at 3 h', item= `O=C(/C=C(/Br)C(=O)O)Nc1ccc(O)c(C(=O)O)c1` )
result: 14800

---

assay: Distribution of C1 in tissues; assay type: in vivo, Wistar rats; conditions: male, Wistar, rat, heart, po, 75 mg/kg, Hearth, p.o. 75 mg/kg, individual rats; read-out: Concentration (µg/mL) at 30 minutes, Rat 1-3
measured.quantity: concentration at 30 min (µg/mL)
Give the value in µg/mL but do not write µg/mL after it.

query: # get_value(readout='concentration at 30 min', item= `O=C(/C=C(/Br)C(=O)O)Nc1ccc(O)c(C(=O)O)c1` )
result: 3.8

---

assay: Distribution of C1 in tissues; format: in vivo, Wistar rats; conditions: male, Wistar, rat, lung, po, 75 mg/kg, Lung, 3 h, p.o. 75 mg/kg, n = 3; read-out: Average Concentration
measured.quantity: concentration at 3 h
The reply should consist of the numeric value with the unit placed after it.

query: # get_value(readout='concentration at 3 h', item= O=C(/C=C(/Br)C(=O)O)Nc1ccc(O)c(C(=O)O)c1 [Compound C1] )
result: 7200 ng/mL
